# experiment: protein stability index of a GFP-peptide fusion (yeast GPS) (PSI 1-4); higher = more stable; sorted into four equal gates, so the index is relative within each strain
# test conditions: doa10∆
Would you mind sorting the entries by protein stability index according to these classes? low group (below 2), middle group (2 to below 3), high group (3 or more)

# count of solved cases: 5
sequence data | discrete label
AVGNLGNAIEVTEDGSI [RPL22B] | low group
ILYSFKLSGKLLKEEKI [YML103C/NUP188] | low group
EDYAIVTKGGTVENPLR [PRP28] | high group
QGNPKKRPGKLSDYIPG [CYT1] | high group
KKSKLISLYLLNLLSQN [RPN12] | low group

**Query** // return the class label for GYDDFQEEGSFEFGNMK [FAS2]
**Result** high group

**Query** Determine which band this sequence sits in: NDNEDDDEEYDYNDVEV [BRR2]
**Result** high group

**Query** Which category does the recorded protein stability index put PSLYRLLNILITYGIIK [SRB8] in?
**Result** low group

**Query** Hi there! Could you help me figure out the category for VTKQSELNSSEDILEDM [SMC1] please?
**Result** high group

**Query** Assign a category based on measured protein stability index for MAGLMHFKKPDITVHGE [RRP45] and give only the class name.
**Result** middle group

**Query** Quick check: band for EDILQGIFNLLNTLFNP [NUT1]
**Result** middle group

**Query** // return the class label for KISLLRPSFQNNRISNA [SWP82]
**Result** middle group

**Query** Bin? MKYIQTEQQIEVPEGVT [RPL9A]
**Result** middle group
